experimentalSystem: UniProtKB P23458
Sequence (P23458 whole entry): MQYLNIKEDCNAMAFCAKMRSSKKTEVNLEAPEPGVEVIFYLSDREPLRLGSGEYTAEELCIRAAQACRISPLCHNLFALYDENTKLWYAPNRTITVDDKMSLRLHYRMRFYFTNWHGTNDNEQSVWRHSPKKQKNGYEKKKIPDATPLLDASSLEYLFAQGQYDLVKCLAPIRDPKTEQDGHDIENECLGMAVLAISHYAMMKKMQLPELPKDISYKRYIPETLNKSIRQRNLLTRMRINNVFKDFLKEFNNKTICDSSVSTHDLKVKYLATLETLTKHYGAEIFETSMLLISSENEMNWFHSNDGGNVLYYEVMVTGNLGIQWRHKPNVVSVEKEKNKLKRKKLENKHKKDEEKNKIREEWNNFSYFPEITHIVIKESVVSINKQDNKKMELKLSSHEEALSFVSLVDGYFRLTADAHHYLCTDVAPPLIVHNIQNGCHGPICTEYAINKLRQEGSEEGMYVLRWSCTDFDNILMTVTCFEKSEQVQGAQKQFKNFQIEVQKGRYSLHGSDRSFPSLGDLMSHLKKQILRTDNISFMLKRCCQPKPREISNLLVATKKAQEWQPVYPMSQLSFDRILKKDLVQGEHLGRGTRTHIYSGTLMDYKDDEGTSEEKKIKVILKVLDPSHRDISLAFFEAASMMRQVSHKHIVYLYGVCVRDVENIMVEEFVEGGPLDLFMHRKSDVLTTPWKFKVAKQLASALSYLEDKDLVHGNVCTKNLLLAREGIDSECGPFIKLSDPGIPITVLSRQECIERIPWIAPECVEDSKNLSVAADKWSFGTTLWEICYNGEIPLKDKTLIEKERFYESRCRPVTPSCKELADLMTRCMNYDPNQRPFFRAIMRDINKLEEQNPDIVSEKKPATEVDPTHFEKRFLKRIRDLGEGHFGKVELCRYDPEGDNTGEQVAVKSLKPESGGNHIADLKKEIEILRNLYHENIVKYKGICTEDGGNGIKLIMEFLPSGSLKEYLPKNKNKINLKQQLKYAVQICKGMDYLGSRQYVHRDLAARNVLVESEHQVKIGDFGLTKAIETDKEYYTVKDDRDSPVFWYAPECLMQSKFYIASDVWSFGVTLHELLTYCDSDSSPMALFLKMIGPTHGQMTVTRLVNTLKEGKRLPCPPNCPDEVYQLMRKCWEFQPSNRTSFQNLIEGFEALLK
observedProperty: pIC50
To interpret pIC50, take it as minus log10 of a concentration measured in moles per litre.

| moleculeSmiles | recordedMeasurement |
| --- | --- |
| N#CCCn1cc(-c2nc(Nc3ccc4c(c3)CCN4C(=O)CN3CCS(=O)(=O)CC3)ncc2F)cn1 | 6.90 |

Here is another compound to look at.
Q: Recorded pIC50 for Cc1cnc(Nc2ccc3c(c2)CCN3S(=O)(=O)c2ccc(C(F)(F)F)cc2)nc1-c1cnn(C(C)C)c1 , please?
A: 6.47

----------
assayProcedure: Cmax in Sprague-Dawley rat at 20 mg/kg, po by LC-MS/MS analysis
Assay type: ADME, organism-based
Set-up: route oral, dose 20 mg/kg
measurementParameters: in vivo
observedProperty: Cmax (ng/mL)
# output: bare number, implied unit ng/mL

Q: // lookup Cmax for N#CCCn1cc(-c2nc(Nc3ccc4c(ccn4S(=O)(=O)C(F)(F)F)c3)ncc2F)cn1
A: 8

----------
experimentalSystem: Non-receptor tyrosine-protein kinase TYK2 (Homo sapiens)
assayProcedure: Inhibition of recombinant human TYK2 (875 to end residues) using GGMEDIYFEFMGG as substrate incubated for 40 mins in presence of [gamma33P]ATP by scintillation counting based radiometry assay
observedProperty: pIC50
Formally, pIC50 is defined as -log10 of the concentration c, with c in mol/L.

Known results for compounds:
| compound | experimentalSystem | observedProperty | recordedMeasurement |
| --- | --- | --- | --- |
| Cc1cnc(Nc2ccc3c(c2)CCN3C(=O)c2ccc(C(F)(F)F)cc2F)nc1-c1cnn(C(C)C)c1 | Non-receptor tyrosine-protein kinase TYK2 (Homo sapiens) | pIC50 | 7.97 |
| N#CCCn1cc(-c2nc(Nc3ccc4c(c3)CCN4)ncc2F)cn1 | Non-receptor tyrosine-protein kinase TYK2 (Homo sapiens) | pIC50 | 8.70 |
| Cc1cnc(Nc2ccc3c(c2)CCN3S(=O)(=O)c2ccc(C(F)(F)F)cc2)nc1-c1cnn(C2CCC2)c1 | Non-receptor tyrosine-protein kinase TYK2 (Homo sapiens) | pIC50 | 7.92 |
| CCOC(C)n1cc(-c2nc(Nc3ccc4c(c3)CCN4S(=O)(=O)c3ccc(C(F)(F)F)cc3)ncc2C)cn1 (stereo not given) | Non-receptor tyrosine-protein kinase TYK2 (Homo sapiens) | pIC50 | 7.42 |
| CCCS(=O)(=O)N1CCc2cc(Nc3ncc(C)c(-c4cnn(C(C)C)c4)n3)ccc21 | Non-receptor tyrosine-protein kinase TYK2 (Homo sapiens) | pIC50 | 8.42 |
| Cc1cnc(Nc2ccc3c(c2)CCN3C(=O)C2CC2)nc1-c1cnn(C(C)C)c1 | Non-receptor tyrosine-protein kinase TYK2 (Homo sapiens) | pIC50 | 8.42 |
| Cc1cnc(Nc2ccc3c(c2)CCN3S(=O)(=O)c2ccc(C(F)(F)F)cc2)nc1-c1cnn(CCC#N)c1 | Non-receptor tyrosine-protein kinase TYK2 (Homo sapiens) | pIC50 | 8.70 |
| Cc1cnc(Nc2ccc3c(c2)CCN3C(=O)C2CC2(F)F)nc1-c1cnn(C(C)C)c1 (stereo not given) | Non-receptor tyrosine-protein kinase TYK2 (Homo sapiens) | pIC50 | 8.24 |

Q: Would you kindly share the measured pIC50 for CCCn1cc(-c2nc(Nc3ccc4c(c3)CCN4S(=O)(=O)c3ccc(C(F)(F)F)cc3)ncc2C)cn1 ?
A: 7.64

Q: Reported pIC50, compound Cc1cnc(Nc2ccc3c(c2)CCN3S(=O)(=O)c2ccc3c(c2)CC(=O)N3)nc1-c1cnn(C(C)C)c1 : ____
A: 7.91

Q: Item under review: Cc1cnc(Nc2ccc3c(c2)CCN3C(=O)CN2CCS(=O)(=O)CC2)nc1-c1cnn(C(C)C)c1 . Reported pIC50?
A: 8.70

Q: For the compound shown here, Cc1cnc(Nc2ccc3c(c2)CCN3S(=O)(=O)c2ccc(C(F)(F)F)cc2)nc1-c1cnn(C)c1 , give the reported pIC50.
A: 6.83

Q: Need pIC50, item Cc1cnc(Nc2ccc3c(c2)CCN3C(=O)CCN2CCOCC2)nc1-c1cnn(C(C)C)c1
A: 8.02

----------
experimentalSystem: UniProtKB O60674
Sequence (O60674 whole entry): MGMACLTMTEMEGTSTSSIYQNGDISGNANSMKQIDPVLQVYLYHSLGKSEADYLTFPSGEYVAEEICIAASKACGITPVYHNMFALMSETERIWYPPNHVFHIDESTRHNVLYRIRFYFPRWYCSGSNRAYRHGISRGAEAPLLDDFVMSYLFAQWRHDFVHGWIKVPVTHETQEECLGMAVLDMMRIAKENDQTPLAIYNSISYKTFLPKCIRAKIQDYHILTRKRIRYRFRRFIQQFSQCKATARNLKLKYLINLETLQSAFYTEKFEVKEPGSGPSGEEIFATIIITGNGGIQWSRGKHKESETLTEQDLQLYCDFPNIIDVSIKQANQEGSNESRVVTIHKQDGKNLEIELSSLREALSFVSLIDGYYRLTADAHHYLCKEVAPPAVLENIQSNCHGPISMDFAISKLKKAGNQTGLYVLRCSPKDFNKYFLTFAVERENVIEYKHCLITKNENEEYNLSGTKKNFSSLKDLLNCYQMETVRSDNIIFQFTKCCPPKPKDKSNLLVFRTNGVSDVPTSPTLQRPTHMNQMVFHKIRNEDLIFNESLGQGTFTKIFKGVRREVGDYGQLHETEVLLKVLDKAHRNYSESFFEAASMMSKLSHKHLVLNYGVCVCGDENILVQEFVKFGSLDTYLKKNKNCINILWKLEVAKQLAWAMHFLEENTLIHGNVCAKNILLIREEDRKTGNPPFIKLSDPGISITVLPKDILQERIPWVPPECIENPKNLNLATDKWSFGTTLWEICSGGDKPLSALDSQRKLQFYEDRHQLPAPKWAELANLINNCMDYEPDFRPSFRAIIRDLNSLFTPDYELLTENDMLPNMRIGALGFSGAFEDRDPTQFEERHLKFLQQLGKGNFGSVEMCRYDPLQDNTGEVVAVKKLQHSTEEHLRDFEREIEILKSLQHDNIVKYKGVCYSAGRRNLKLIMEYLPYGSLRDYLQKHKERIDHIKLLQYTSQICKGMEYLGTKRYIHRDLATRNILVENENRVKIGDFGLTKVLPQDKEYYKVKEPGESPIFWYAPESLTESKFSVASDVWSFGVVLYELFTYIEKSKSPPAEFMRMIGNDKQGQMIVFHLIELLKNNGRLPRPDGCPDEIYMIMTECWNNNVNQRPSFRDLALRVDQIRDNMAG
assayProcedure: Inhibition of recombinant human JAK2 (808 to end residues) KTFCGTPEYLAPE as substrate measured after 40 mins in presence of [gamm33P]ATP by scintillation counting based radiometry assay
Listed below: pIC50 values for each entry.
Recall that pIC50 is obtained by taking minus log10 of the concentration measured in molar.

Q: Can you look up the measured pIC50 of Cc1cnc(Nc2ccc3c(c2)CCN3C(=O)C2CC2(F)F)nc1-c1cnn(C(C)C)c1 (stereo not drawn) for me?
A: 8.18

Q: // lookup pIC50 for N#CCCn1cc(-c2nc(Nc3ccc4c(c3)CCN4)ncc2F)cn1
A: 6.53

Q: Can you share its pIC50? I mean this compound: Cc1cnc(Nc2ccc3c(c2)CCN3C(=O)[C@H]2CCCN2C(=O)C2(C#N)CC2)nc1-c1cnn(C(C)C)c1
A: 8.42

Q: So what's the measured pIC50 for this one? Cc1cnc(Nc2ccc3c(c2)CCN3S(=O)(=O)c2ccc3c(c2)CC(=O)N3)nc1-c1cnn(C(C)C)c1
A: 7.60

Q: Endpoint output: pIC50 of CCOC(C)n1cc(-c2nc(Nc3ccc4c(c3)CCN4S(=O)(=O)c3ccc(C(F)(F)F)cc3)ncc2C)cn1 (stereo not drawn) . Value?
A: 6.47

----------
# Lookup of reported half-life keyed by entry
assayProcedure: Metabolic stability in cryopreserved human liver microsomes assessed as half life
Format: ADME, Microsome
Number only, in min; omit the unit.

Use the examples below as a reference point.
| moleculeSmiles | half-life, min |
| --- | --- |
| CCCn1cc(-c2nc(Nc3ccc4c(c3)CCN4S(=O)(=O)c3ccc(C(F)(F)F)cc3)ncc2C)cn1 | 2.38 |
| N#CCCn1cc(-c2nc(Nc3ccc4c(ccn4S(=O)(=O)c4ccc(C(F)(F)F)cc4)c3)ncc2F)cn1 | 38.1 |

Q: So what does the record say about half-life for N#CCCn1cc(-c2nc(Nc3ccc4c(c3)CNC4=O)ncc2F)cn1 ?
A: 56.8

Q: Fill in the blank: the reported half-life of N#CCCn1cc(-c2nc(Nc3ccc4c(c3)CCN4S(=O)(=O)c3ccc(C(F)(F)F)cc3)ncc2F)cn1 is ____.
A: 9.2

Q: half-life for Cc1cnc(Nc2ccc3c(c2)CCN3S(=O)(=O)c2ccc(C(F)(F)F)cc2)nc1-c1cnn(C(C)C)c1 ?
A: 3.94

----------
Species on record: Homo sapiens
assayProcedure: Selectivity index, ratio of IC50 for inhibition of recombinant human JAK2 (808 to end residues) to IC50 for inhibition of recombinant human TYK2 (875 to end residues)
observedProperty: Selectivity Index
Just the number, please, no unit after it.

Use the examples below as a reference point.
| moleculeSmiles | recordedMeasurement |
| --- | --- |
| Cc1cnc(Nc2ccc3c(c2)CCN3C(=O)[C@@H](O)CO)nc1-c1cnn(C(C)C)c1 | 1.95 |
| Cc1cnc(Nc2ccc3c(c2)CCN3C(=O)C2CC2)nc1-c1cnn(C(C)C)c1 | 1.03 |
| Cc1cnc(Nc2ccc3c(c2)CCN3S(=O)(=O)c2ccc(C(F)(F)F)cc2)nc1-c1cnn(C(C)C)c1 | 5.12 |
| Cc1cnc(Nc2ccc3c(c2)CCN3C(=O)[C@H]2CCCN2C(=O)C2(C#N)CC2)nc1-c1cnn(C(C)C)c1 | 1.85 |
| CCS(=O)(=O)N1CCc2cc(Nc3ncc(C)c(-c4cnn(C(C)C)c4)n3)ccc21 | 1.69 |
| Cc1cnc(Nc2ccc3c(c2)CCN3C(=O)CCN2CCOCC2)nc1-c1cnn(C(C)C)c1 | 1.24 |

Q: Can you share its Selectivity Index? I mean this molecule: CC(=O)N1CCc2cc(Nc3ncc(C)c(-c4cnn(C(C)C)c4)n3)ccc21
A: 3.31

Q: I have this molecule here, Cc1cnc(Nc2ccc3c(c2)CCN3C(=O)[C@@H]2C[C@@H]2F)nc1-c1cnn(C(C)C)c1 , and I need its recorded Selectivity Index.
A: 1.65

----------
experimentalSystem: Non-receptor tyrosine-protein kinase TYK2 (Homo sapiens, UniProt P29597)
Sequence (P29597 whole entry): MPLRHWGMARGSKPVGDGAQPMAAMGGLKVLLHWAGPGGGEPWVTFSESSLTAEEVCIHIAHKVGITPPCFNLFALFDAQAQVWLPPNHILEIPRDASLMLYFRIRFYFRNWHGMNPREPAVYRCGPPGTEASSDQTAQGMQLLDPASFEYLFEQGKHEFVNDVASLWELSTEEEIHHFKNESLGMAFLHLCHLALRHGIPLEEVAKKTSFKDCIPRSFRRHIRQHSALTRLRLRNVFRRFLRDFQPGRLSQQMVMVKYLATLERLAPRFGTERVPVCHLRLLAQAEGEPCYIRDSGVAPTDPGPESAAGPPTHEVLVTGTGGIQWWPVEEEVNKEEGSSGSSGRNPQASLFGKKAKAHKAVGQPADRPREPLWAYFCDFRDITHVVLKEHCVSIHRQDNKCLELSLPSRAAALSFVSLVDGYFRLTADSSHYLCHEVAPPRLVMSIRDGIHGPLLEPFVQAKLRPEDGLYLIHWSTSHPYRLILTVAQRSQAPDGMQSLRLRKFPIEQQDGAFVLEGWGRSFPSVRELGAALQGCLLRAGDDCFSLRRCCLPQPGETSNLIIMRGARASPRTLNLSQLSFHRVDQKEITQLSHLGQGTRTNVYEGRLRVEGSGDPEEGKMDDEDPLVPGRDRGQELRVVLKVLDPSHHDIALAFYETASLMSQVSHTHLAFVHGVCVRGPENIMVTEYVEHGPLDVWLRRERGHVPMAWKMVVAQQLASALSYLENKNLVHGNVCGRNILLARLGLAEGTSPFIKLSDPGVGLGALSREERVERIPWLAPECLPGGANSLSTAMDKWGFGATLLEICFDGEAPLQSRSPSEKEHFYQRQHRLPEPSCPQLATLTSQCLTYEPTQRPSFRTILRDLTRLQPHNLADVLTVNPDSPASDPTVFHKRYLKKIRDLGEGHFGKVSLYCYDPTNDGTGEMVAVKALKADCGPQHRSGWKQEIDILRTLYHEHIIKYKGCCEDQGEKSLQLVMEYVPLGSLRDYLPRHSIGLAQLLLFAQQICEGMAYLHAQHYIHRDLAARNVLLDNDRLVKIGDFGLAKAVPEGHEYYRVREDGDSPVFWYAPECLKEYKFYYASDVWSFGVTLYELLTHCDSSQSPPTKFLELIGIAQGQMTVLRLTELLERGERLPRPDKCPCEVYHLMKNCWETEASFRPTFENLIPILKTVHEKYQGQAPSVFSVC
assayProcedure: Inhibition of recombinant human TYK2 (875 to end residues) using GGMEDIYFEFMGG as substrate incubated for 40 mins in presence of [gamma33P]ATP by scintillation counting based radiometry assay
observedProperty: pIC50
The meaning of pIC50 here: minus log10 of the concentration in molar units.

A selection of reference data follows.
| moleculeSmiles | recordedMeasurement |
| --- | --- |
| N#CCCn1cc(-c2nc(Nc3ccc4c(c3)CCN4S(=O)(=O)C(F)(F)F)ncc2F)cn1 | 8.40 |
| N#CCCn1cc(-c2nc(Nc3ccc4c(c3)CCN4C(=O)CN3CCS(=O)(=O)CC3)ncc2F)cn1 | 8.70 |
| Cc1cnc(Nc2ccc3c(c2)CCN3C(=O)[C@@H]2C[C@@H]2F)nc1-c1cnn(C(C)C)c1 | 8.20 |

Q: Record lookup: for Non-receptor tyrosine-protein kinase TYK2 (Homo sapiens, UniProt P29597), what pIC50 belongs to Cc1cnc(Nc2ccc(N3CCC(N(C)CCO)CC3)c(F)c2)nc1-c1cnn(C(C)C)c1 ?
A: 8.70
